- TARGET_ENTITY: HLA-A03.01 (Homo sapiens)
- Sequence (P04439 25-365): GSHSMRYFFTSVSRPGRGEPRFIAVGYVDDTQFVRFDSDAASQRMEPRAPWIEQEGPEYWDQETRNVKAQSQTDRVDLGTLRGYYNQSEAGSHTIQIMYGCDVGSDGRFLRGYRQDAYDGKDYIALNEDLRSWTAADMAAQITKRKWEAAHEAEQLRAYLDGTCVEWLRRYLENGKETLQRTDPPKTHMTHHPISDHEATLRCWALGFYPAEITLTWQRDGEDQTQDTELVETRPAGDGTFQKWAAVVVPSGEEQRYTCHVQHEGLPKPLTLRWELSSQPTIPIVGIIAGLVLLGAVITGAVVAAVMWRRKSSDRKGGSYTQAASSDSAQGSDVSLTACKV
- Sequence (P61769 21-119 partner): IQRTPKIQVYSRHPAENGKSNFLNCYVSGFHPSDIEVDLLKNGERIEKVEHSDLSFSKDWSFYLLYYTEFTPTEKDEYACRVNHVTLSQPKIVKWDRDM
- TEST_SUMMARY: Class I MHC peptide binding affinity (displacement of radiolabeled reference peptide)
- EXPERIMENTAL_PARAMETERS: allele A03.01; read-out: Observed Affinity (IC50; (nM))
Where a SMILES comes first, the peptide text is derived from it.
Overview of recorded IC50 for various compounds
Please respond with the number in nM and leave the unit unwritten.

• CC[C@H](C)[C@H](NC(=O)[C@H](Cc1ccc(O)cc1)NC(=O)[C@H](CC(C)C)NC(=O)[C@H](CO)NC(=O)[C@H](CC(N)=O)NC(=O)[C@H](CS)NC(=O)[C@H](CCC(=O)O)NC(=O)[C@H](Cc1c[nH]cn1)NC(=O)[C@H](CC(C)C)NC(=O)[C@@H](N)C(C)C)C(=O)O (H-VLHECNSLYI-OH; N-terminus and C-terminus assumed) = 10500

Switching to the query record.
Prompt: GET IC50 where system = HLA-A03.01 (Homo sapiens) and item = CSCC[C@H](NC(=O)[C@H](CC(C)C)NC(=O)[C@@H](N)CCCCN)C(=O)N[C@@H](CC(C)C)C(=O)N[C@@H](CC(C)C)C(=O)N[C@@H](CCCNC(=N)N)C(=O)N[C@@H](CC(C)C)C(=O)N[C@@H](CC(N)=O)C(=O)N[C@@H](CC(C)C)C(=O)N[C@@H](CCCNC(=N)N)C(=O)O (H-KLMLLRLNLR-OH; N-terminus and C-terminus assumed)
Completion: 48.4

====

- TARGET_ENTITY: HLA-B07.02 (Homo sapiens, UniProt P01889)
- Sequence (P01889 25-362): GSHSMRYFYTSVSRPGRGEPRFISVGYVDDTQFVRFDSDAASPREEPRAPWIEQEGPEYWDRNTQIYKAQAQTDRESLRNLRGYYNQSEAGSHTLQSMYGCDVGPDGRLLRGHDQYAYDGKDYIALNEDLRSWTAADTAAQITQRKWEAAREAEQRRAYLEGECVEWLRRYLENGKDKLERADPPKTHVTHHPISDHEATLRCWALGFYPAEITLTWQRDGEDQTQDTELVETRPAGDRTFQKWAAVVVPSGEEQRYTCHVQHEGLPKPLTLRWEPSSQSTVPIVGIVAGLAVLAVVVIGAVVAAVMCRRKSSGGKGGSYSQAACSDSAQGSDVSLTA
- Sequence (P61769 21-119 partner): as the sequence (P61769 21-119 partner) above
- TEST_SUMMARY: Class I MHC peptide binding affinity (displacement of radiolabeled reference peptide)
- EXPERIMENTAL_PARAMETERS: Allele B07.02; read-out: Observed Affinity (IC50; (nM))
Where a SMILES comes first, the peptide text is derived from it.
ASSAY_ENDPOINT: IC50 (nM)
Please respond with the number in nM and leave the unit unwritten.

# count of solved cases: 2
* CSCC[C@H](NC(=O)[C@H](Cc1ccc(O)cc1)NC(=O)CNC(=O)[C@H](CC(=O)O)NC(=O)[C@H](CCCNC(=N)N)NC(=O)[C@H](CCCCN)NC(=O)[C@@H]1CCCN1C(=O)[C@@H](N)CCCCN)C(=O)N[C@@H](Cc1ccccc1)C(=O)N[C@@H](CC(C)C)C(=O)O (H-KPKRDGYMFL-OH; N-terminus and C-terminus assumed) | 98.1
* C[C@H](NC(=O)[C@H](C)NC(=O)[C@H](CCCNC(=N)N)NC(=O)[C@@H]1CCCN1C(=O)[C@@H]1CCCN1C(=O)[C@H](CCCNC(=N)N)NC(=O)[C@@H]1CCCN1C(=O)[C@@H]1CCCN1)C(=O)N[C@@H](CS)C(=O)O (H-PPRPPRAAC-OH; N-terminus and C-terminus assumed) | 32.8

Switching to the query record.
Prompt: Tell us which IC50 value is on record for CC(C)C[C@H](NC(=O)[C@H](C)N)C(=O)N[C@@H](CO)C(=O)N[C@@H](C)C(=O)N[C@@H](CO)C(=O)N[C@@H](CC(N)=O)C(=O)N[C@@H](CO)C(=O)N[C@@H](CS)C(=O)N[C@@H](Cc1ccccc1)C(=O)O (H-ALSASNSCF-OH; N-terminus and C-terminus assumed)
Completion: 684

# credit: patent US20220282217A1
